Target: TRPV1(VR1) agonist (Rattus norvegicus, UniProt O35433)
Sequence (O35433 whole entry): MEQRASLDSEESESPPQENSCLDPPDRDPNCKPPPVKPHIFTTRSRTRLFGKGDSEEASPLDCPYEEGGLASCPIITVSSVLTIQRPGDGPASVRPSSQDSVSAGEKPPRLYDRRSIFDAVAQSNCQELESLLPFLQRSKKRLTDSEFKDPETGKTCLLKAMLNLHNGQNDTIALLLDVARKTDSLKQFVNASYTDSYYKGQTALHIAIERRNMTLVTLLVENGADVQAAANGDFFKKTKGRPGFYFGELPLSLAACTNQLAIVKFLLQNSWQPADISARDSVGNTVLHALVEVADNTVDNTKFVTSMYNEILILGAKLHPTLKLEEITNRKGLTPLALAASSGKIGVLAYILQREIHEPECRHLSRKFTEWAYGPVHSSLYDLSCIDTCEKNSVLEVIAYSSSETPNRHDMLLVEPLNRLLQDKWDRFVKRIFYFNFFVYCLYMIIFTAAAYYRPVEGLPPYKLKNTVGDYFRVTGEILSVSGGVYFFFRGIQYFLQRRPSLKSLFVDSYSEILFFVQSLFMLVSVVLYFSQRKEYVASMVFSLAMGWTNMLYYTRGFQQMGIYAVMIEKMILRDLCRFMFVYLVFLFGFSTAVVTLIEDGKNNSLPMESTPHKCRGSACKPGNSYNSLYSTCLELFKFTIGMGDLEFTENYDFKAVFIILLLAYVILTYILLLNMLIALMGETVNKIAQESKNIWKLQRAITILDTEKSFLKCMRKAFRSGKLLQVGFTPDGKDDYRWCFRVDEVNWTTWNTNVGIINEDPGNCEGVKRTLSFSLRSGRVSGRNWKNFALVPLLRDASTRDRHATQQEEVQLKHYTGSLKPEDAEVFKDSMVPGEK
attribute measured: IC50
Kindly format the answer as number then unit.

Indicate the recorded IC50 value for this molecule: CCCCCC(=O)N(CC/C=C\C/C=C\C/C=C\CCCC(=O)NC1CC1)C(C)C
7.5 µM

---

Assay: LD50 established using mice
Type: in vivo
Settings: in vivo, body surface area translation mouse to human
Procedure: LD50 (abbreviation for “Lethal Dose, 50%”) is established using mice. The dose translation between mouse and human is based on body surface area allometric translation. For example, a 1 mg/kg mouse dose is equivalent to a 0.08 mg/kg human dose. For more information on species dose translation see: Reagan-Shaw et. al, FASEB J. 122, 659-661 (2007).
attribute measured: LD50
Kindly format the answer as number then unit.

Indicate the recorded LD50 value for this compound: CCCCCC(=O)N(CC/C=C\C/C=C\C/C=C\CCCC(=O)NC1CC1)C(C)C
2.4 mg/kg

---

Test: in vivo
Settings: mouse, liver, iv, 10 mg/kg
attribute measured: concentration at 15 min (ng/g)
Express the result in ng/g but write the number alone.

Indicate the recorded concentration at 15 min value for this compound: CCCCCC(=O)N(CC/C=C\C/C=C\C/C=C\CCCC(=O)NC1CC1)C(C)C
170

---

Biological target: UniProt:P34972
Sequence (P34972 whole entry): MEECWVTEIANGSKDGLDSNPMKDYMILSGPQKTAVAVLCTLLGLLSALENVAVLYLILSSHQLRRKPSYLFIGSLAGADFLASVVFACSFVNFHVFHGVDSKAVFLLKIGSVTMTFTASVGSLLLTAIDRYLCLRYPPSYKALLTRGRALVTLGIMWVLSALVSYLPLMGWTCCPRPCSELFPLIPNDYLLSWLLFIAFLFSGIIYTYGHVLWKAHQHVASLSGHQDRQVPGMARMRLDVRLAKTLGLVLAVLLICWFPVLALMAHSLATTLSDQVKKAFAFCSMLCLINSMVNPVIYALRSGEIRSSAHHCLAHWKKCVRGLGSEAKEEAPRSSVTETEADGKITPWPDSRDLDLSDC
attribute measured: pIC50
Interpret pIC50 as the negative base-10 log of the concentration measured in mol/L.

Provide UniProt:P34972 pIC50 reading for CCCCCC(=O)N(CC/C=C\C/C=C\C/C=C\CCCC(=O)NC1CC1)C(C)C .
6.82

---

Target: MT1(ML1A) agonist-Melatonin (Homo sapiens)
Sequence (P48039 whole entry): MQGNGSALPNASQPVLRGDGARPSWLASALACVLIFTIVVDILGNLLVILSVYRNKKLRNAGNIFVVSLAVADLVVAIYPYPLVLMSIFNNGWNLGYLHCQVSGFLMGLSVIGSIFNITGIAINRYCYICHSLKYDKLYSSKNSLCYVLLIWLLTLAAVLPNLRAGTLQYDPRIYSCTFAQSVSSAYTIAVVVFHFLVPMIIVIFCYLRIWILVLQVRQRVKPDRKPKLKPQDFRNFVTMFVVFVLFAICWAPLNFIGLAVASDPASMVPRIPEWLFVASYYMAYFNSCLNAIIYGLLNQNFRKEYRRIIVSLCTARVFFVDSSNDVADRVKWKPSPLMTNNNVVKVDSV
attribute measured: IC50 (nM)
Express the result in nM but write the number alone.

Provide MT1(ML1A) agonist-Melatonin (Homo sapiens) IC50 reading for CCCCCC(=O)N(CC/C=C\C/C=C\C/C=C\CCCC(=O)NC1CC1)C(C)C .
1200

---

Target: δ- opioid agonist (Homo sapiens, UniProt P41143)
Sequence (P41143 whole entry): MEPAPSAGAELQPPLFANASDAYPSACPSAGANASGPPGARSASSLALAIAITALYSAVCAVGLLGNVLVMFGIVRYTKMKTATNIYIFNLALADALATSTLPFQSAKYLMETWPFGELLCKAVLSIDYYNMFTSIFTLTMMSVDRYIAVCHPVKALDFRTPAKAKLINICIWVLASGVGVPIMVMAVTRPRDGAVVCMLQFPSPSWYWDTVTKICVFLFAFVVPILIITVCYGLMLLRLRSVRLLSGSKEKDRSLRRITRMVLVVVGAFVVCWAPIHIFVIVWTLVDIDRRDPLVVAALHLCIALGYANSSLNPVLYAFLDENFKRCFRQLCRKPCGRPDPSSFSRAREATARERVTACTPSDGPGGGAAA
attribute measured: IC50 (µM)
Express the result in µM but write the number alone.

Indicate the recorded IC50 value for this compound: CCCCCC(=O)N(CC/C=C\C/C=C\C/C=C\CCCC(=O)NC1CC1)C(C)C
13

---

Test system: plasma or serum proteins
Assay: Binding to plasma or serum proteins
Assay type: in vitro ADME
attribute measured: fraction unbound

Indicate the recorded fraction unbound value for this compound: CCCCCC(=O)N(CC/C=C\C/C=C\C/C=C\CCCC(=O)NC1CC1)C(C)C
~0.01

---

Assay: in vivo
Settings: mouse, plasma, iv, 10 mg/kg
attribute measured: half-life

Indicate the recorded half-life value for this compound: CCCCCC(=O)N(CC/C=C\C/C=C\C/C=C\CCCC(=O)NC1CC1)C(C)C [CMX-020]
~17 min

---

Assay: in vivo
Settings: mouse, brain, iv, 10 mg/kg
attribute measured: concentration at 60 min

Indicate the recorded concentration at 60 min value for this molecule: CCCCCC(=O)N(CC/C=C\C/C=C\C/C=C\CCCC(=O)NC1CC1)C(C)C
< 20 ng/g

---

Test: in vivo
Conditions: mouse, liver, iv, 10 mg/kg
attribute measured: concentration at 60 min

Indicate the recorded concentration at 60 min value for this molecule: CCCCCC(=O)N(CC/C=C\C/C=C\C/C=C\CCCC(=O)NC1CC1)C(C)C
< 20 ng/g

---

Target: κ-opioid agonist (Rattus norvegicus)
Sequence (P34975 whole entry): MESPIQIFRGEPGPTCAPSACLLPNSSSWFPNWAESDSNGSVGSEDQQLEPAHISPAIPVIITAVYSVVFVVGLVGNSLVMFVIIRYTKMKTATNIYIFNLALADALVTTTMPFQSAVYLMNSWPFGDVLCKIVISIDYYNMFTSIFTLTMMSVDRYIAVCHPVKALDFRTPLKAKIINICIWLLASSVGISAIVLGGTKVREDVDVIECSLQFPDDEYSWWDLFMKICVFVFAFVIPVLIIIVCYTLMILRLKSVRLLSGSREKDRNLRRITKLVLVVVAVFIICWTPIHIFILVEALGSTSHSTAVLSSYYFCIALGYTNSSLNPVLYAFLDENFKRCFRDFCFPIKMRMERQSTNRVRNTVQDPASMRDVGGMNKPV
attribute measured: IC50 (µM)
Express the result in µM but write the number alone.

Provide κ-opioid agonist (Rattus norvegicus) IC50 reading for CCCCCC(=O)N(CC/C=C\C/C=C\C/C=C\CCCC(=O)NC1CC1)C(C)C .
4.7

---

Molecular target: CB1 Cannabinoid agonist (Homo sapiens, UniProt P21554)
Sequence (P21554 whole entry): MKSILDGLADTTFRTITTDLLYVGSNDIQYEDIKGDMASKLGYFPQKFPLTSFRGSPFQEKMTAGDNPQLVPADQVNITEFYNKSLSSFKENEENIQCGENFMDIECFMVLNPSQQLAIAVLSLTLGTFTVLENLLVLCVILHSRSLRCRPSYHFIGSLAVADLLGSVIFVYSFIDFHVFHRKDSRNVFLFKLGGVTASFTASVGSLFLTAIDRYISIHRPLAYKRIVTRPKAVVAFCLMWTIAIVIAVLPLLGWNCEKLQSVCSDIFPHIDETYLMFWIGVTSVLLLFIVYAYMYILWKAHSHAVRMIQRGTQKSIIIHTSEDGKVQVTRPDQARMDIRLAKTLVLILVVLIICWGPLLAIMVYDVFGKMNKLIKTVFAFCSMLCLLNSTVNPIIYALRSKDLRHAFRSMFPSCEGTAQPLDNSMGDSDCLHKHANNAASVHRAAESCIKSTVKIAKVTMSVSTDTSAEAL
attribute measured: pIC50
Interpret pIC50 as the negative base-10 log of the concentration measured in mol/L.

Provide CB1 Cannabinoid agonist (Homo sapiens, UniProt P21554) pIC50 reading for CCCCCC(=O)N(CC/C=C\C/C=C\C/C=C\CCCC(=O)NC1CC1)C(C)C .
7.68
